Catalogue of IC50 readings, one per entry.
Biological target: hCDK1/B (Homo sapiens)
Sequence (P06493 whole entry): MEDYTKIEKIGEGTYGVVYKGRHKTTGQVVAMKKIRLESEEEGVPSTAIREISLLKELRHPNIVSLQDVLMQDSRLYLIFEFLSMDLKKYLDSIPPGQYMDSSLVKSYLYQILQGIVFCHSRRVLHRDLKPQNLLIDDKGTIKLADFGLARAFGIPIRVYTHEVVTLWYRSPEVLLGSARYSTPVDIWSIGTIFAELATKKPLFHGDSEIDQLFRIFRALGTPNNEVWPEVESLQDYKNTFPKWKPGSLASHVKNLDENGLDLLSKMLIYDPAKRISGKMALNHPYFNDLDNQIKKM
Sequence (P14635 whole entry partner): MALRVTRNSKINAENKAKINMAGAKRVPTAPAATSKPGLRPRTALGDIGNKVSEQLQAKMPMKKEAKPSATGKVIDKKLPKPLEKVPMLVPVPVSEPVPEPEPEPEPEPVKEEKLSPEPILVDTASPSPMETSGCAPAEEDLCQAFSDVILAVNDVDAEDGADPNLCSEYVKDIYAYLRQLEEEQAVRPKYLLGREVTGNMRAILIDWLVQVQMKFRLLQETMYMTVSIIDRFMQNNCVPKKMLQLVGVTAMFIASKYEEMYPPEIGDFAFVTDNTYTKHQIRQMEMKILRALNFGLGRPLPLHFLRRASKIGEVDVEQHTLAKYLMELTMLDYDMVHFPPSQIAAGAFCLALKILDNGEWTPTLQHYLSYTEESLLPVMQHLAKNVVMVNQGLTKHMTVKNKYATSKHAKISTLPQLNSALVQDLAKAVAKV
Assay: hCDK1/B assay
Settings: Table E; read-out: hCDK1/B/IC50 [umol l − 1]

# annotated cases, reported IC50 shown
* Cc1cn(C2CCCC2)c2nc(Nc3ccc(CO)cc3)ncc12 | < 10 µM
* Cc1cn(C2CCCC2)c2nc(Nc3ccc(N4CCCCC4)nc3)ncc12 | > 15 µM
* CCC(CC)n1c(CNC2CCCC2)cc2cnc(Nc3ccc(N4CCN(C(C)=O)CC4)cc3)nc21 | < 10 µM

# input for lookup
Query: IC50 lookup needed for `CCC(CC)n1c(C(=O)Nc2ccncc2)cc2cnc(Nc3ccc(N4CCNCC4)cc3)nc21` , thanks.
Response: > 15 µM

====

Target: CDK2/Cyclin-A kinase complex (Homo sapiens)
Assay: CDK2 IMAP fluorescence polarization assay
Assay type: biochemical
Conditions: Table E; read-out: CDK2cyA IMAP/IC50 [umol l − 1]
endpointName: IC50

Solved cases (8 shown):
• c1cc(N2CCNCC2)ccc1Nc1ncc2ccn(C3CCCCC3)c2n1 = < 1 µM
• CCC(C(N)=O)n1ccc2cnc(Nc3ccc(N4CCN(C(C)=O)CC4)cc3)nc21 (stereo not shown) = < 10 µM
• CC1CCC(n2ccc3cnc(Nc4ccc(N5CCNCC5)cc4)nc32)C1 (stereo not shown) = < 10 µM
• CCC(CC)n1c(C(=O)N(C)C)cc2cnc(Nc3ccc(CN4CCNCC4)cc3)nc21 = < 10 µM
• Cc1cn(C2CC2)c2nc(Nc3ccc(N4CCN(C)CC4)cc3)ncc12 = > 10 µM
• CN(C)C(=O)c1cc2cnc(Nc3ccc(C4CCNCC4)cc3)nc2n1C1CCCC1 = > 10 µM
• Cc1cn(-c2c[nH]cn2)c2nc(Nc3ccc(N4CCNCC4)cn3)ncc12 = > 10 µM
• CC(C)c1cn(C2CCCC2)c2nc(Nc3ccc(N4CCNCC4)cn3)ncc12 = > 10 µM

Query: Any idea what IC50 came out for `CCN(CC)c1ccc(Nc2ncc3c(C)cn(C4CCCC4)c3n2)cc1` on CDK2/Cyclin-A kinase complex (Homo sapiens)?
Response: > 10 µM

Query: # returns recorded IC50 (system: CDK2/Cyclin-A kinase complex (Homo sapiens)) for `Cc1cn(C2CCCC2)c2nc(Nc3ccc(N4CCNCC4)nc3)ncc12`
Response: > 10 µM

Query: Query for CDK2/Cyclin-A kinase complex (Homo sapiens): what IC50 does the record show for CCC(CC)n1c(C(C)O)cc2cnc(Nc3ccc(N4CCN(C(C)=O)CC4)cc3)nc21 (stereo not shown) ?
Response: < 10 µM

Query: Checklist item: IC50 tested on CDK2/Cyclin-A kinase complex (Homo sapiens), entry `CC(=O)c1c(C)c2cnc(Nc3ccc(N4CCNCC4)cc3)nc2n1C1CCCC1` , value?
Response: < 1 µM

Query: Reported IC50 for CDK2/Cyclin-A kinase complex (Homo sapiens), given `Cc1cn(-c2cccnc2)c2nc(Nc3ccc(N4CCNCC4)cn3)ncc12` ?
Response: > 10 µM

====

Molecular target: CDK2/Cyclin-A kinase complex (Homo sapiens)
Assay: CDK2 IMAP fluorescence polarization assay
Format: biochemical
Details: Table E; read-out: CDK2cyA IMAP/IC50 [umol l − 1]
endpointName: IC50

Below are worked cases with known answers.
- c1cc(N2CCNCC2)ccc1Nc1ncc2ccn(C3CCOCC3)c2n1 [Example 235]: > 10 µM
- CCC(CC)n1c(C(C)=O)cc2cnc(Nc3ccc(N4CCN(C(C)=O)CC4)cc3)nc21 [Example 377]: < 1 µM

Then there is this molecule:
Query: Please report the recorded IC50 for CCC(CC)n1c(C(=O)N(C)C)cc2cnc(Nc3ccc(CN4CCN(C(=O)OC(C)(C)C)CC4)cc3)nc21 [Example 465] .
Response: < 10 µM
